test: The compound was tested for neurologic toxicity (rotarod) test for 4 hours in mice; active at 300 mg/kg
Format: organism-based
Parameters: dose 300 mg/kg
measurement conditions: mouse, in vivo
readout type: Rotarod toxicity

// below: answered compounds
• CCCCCc1ccc2nc(O)sc2c1 = active at 100 mg/kg
• CCCCC(=O)c1ccc2c(c1)sc(=O)n2CCN1CCOCC1 = active at 100 mg/kg
• Oc1nc2ccc(Cc3ccc(F)cc3)cc2o1 = active at 100 mg/kg
• CCCc1ccc2nc(O)sc2c1 = active at 100 mg/kg
• CN(C)CCn1c(=O)oc2cc(C(=O)c3ccccc3)ccc21 = active at 300 mg/kg
• Cn1c(=O)oc2ccccc21 = active at 100 mg/kg

Go through the list and state Rotarod toxicity for each entry.
1. CCCc1ccc2nc(O)oc2c1
2. CCC(=O)c1ccc2c(c1)sc(=O)n2CCN(C)C
3. Oc1nc2ccc(Cc3ccccc3)cc2o1

1. active at 100 mg/kg
2. active at 300 mg/kg
3. active at 100 mg/kg

* * *

test: The compound was tested for the toxic dose on oral administration.
Assay type: ADME
measurement conditions: rat
readout type: TD50

Given item `CCC(=O)c1ccc2c(c1)sc(=O)n2CCN1CCCCC1` , the value recorded as its TD50 is > 110 mg/kg

* * *

Species on record: Rattus norvegicus
test: Protective index value is the ratio between ED50 and TD50
Format: functional
Can you tell me PI for the items I'm about to list?
Numbers only.

* CCCc1ccc2c(c1)sc(=O)n2CCN1CCCCC1 | 26.9
* CCCCCc1ccc2nc(O)sc2c1 | 2.4
* Oc1nc2ccc(Cc3ccc(F)cc3)cc2o1 | 18.5

Now for a further compound.
Given item `CCC(=O)c1ccc2c(c1)sc(=O)n2CCN1CCCCC1` , the value recorded as its PI is 4

* * *

test: The compound was tested for neurologic toxicity (rotarod) test for 4 hours in mice; no activity or no toxicity at 300 mg/kg
Type: organism-based
Set-up: dose 300 mg/kg
measurement conditions: mouse, in vivo
readout type: Rotarod toxicity

// below: answered molecules
* CCC(=O)c1ccc2c(c1)sc(=O)n2CCN1CCOCC1 | active at 100 mg/kg
* CCC(=O)c1ccc2c(c1)sc(=O)n2CCN1CCCC1 | active at 100 mg/kg
* CCCCC(=O)c1ccc2c(c1)sc(=O)n2CCN(C)C | active at 100 mg/kg
* CCCCCc1ccc2nc(O)oc2c1 | active at 100 mg/kg
* CCCCC(=O)c1ccc2c(c1)oc(=O)n2CCN1CCCCC1 | active at 100 mg/kg
* CCC(=O)c1ccc2c(c1)sc(=O)n2CCN1CCCCC1 | active at 300 mg/kg

Go through the list and state Rotarod toxicity for each entry.
1. CCC(=O)c1ccc2c(c1)oc(=O)n2C
2. CCCc1ccc2c(c1)sc(=O)n2CCN1CCCCC1

active at 100 mg/kg
active at 300 mg/kg

* * *

test: The compound was tested for time of peak effect (TPE) in hours for its toxicity in mice on ip administration.
Format: organism-based
measurement conditions: mouse, in vivo
Can you tell me Toxicity for the items I'm about to list?
Number first, unit second.

// below: answered compounds
- CCC(=O)c1ccc2c(c1)sc(=O)n2CCN1CCCCC1: 0.25 h
- CCC(=O)c1ccc2c(c1)oc(=O)n2CCN1CCCCC1: 0.25 h
- Cn1c(=O)sc2ccccc21: 0.25 h

Go through the list and state Toxicity for each entry.
1. CCC(=O)c1ccc2c(c1)sc(=O)n2C(=O)CC
2. Oc1nc2ccc(Cc3ccc(F)cc3)cc2o1
3. CCCCCc1ccc2nc(O)oc2c1
4. CN(C)CCn1c(=O)oc2cc(C(=O)c3ccccc3)ccc21
5. Oc1nc2ccc(Cc3ccccc3)cc2o1
6. CCCc1ccc2c(c1)sc(=O)n2CCN1CCCCC1
7. CCCCCc1ccc2nc(O)sc2c1
8. CCC(=O)c1ccc2c(c1)sc(=O)n2CCN(C)C

1: 0.25 h; 2: 1 h; 3: 1 h; 4: 0.25 h; 5: 1 h; 6: 0.25 h; 7: 0.5 h; 8: 0.25 h

Go through the list and state Toxicity for each entry.
1. CCC(=O)c1ccc2c(c1)sc(=O)n2CCN1CCCC1
2. Cn1c(=O)oc2ccccc21

1. 0.25 h
2. 0.25 h
